- Protocol text: Cytotoxicity against human GM00637 cells after 72 hrs by MTT assay
- Assay type: functional, cell-based
- Stated conditions: GM00637, 72 h
pIC50: −log10 of the molar value.
Please use t whenever pIC50 is not below 6, and f whenever it is.

| Compound | Class name |
| --- | --- |
| CCn1c(-c2ccc3ccccc3c2)nc2c1C(=O)C=CC2=O | t |
| CC1Cn2c(nc3c2C(=O)C=CC3=O)-c2ccccc21 (stereo not drawn) | f |
| CO[C@@]12[C@H](COC(N)=O)C3=C(C(=O)C(C)=C(N)C3=O)N1C[C@@H]1N[C@@H]12 | t |
| CCn1c(-c2cccnc2)nc2c1C(=O)C=CC2=O | t |
| CC1Cn2c(nc3ccccc32)-c2ccc3ccccc3c21 (stereo not drawn) | f |
| CC1Cn2c(nc3c2C(=O)C=CC3=O)-c2ccc3ccccc3c21 (stereo not drawn) | f |
| CCn1c(-c2ccccc2)nc2c1C(=O)C=CC2=O | t |

###

- System: DU-145
- Protocol text: Cytotoxicity against human DU145 cells after 72 hrs by MTT assay
- Format: functional, cell-based
- Stated conditions: DU-145, 72 h
# criterion met = IC50 below 700 nM (exclusive); criterion not met = IC50 at/above 700 nM

| Molecule | Class name |
| --- | --- |
| CC1Cn2c(nc3c2C(=O)C=CC3=O)-c2ccc3ccccc3c21 (configuration not stated) | criterion not met |
| CC1Cn2c(nc3c2C(=O)C=CC3=O)-c2ccccc21 (configuration not stated) | criterion not met |
| CCn1c(-c2ccccc2)nc2c1C(=O)C=CC2=O | criterion met |
| CCn1c(-c2ccc3ccccc3c2)nc2c1C(=O)C=CC2=O | criterion met |
| CCn1c(-c2cccnc2)nc2c1C(=O)C=CC2=O | criterion not met |
| CO[C@@]12[C@H](COC(N)=O)C3=C(C(=O)C(C)=C(N)C3=O)N1C[C@@H]1N[C@@H]12 [MITOMYCIN] | criterion met |
